Listed molecules paired with reported SAH counterscreen inhibition: Maximum response
Assay: SAH counterscreen inhibition (counterscreen of the MTase-Glo luminescence readout)
Conditions: LUM % inhibition
Quick note: number first, unit second.

Input: # input molecule: COc1ccc(-c2ocnc2C(=O)Nc2ccc3oc(=O)n(CC(=O)N4CCCCC4)c3c2)cc1 [RU-0833661] ; wanted: its SAH counterscreen inhibition: Maximum response
Output: 20.6%

Input: # input molecule: Nc1ncnc2c1ncn2C1OC(CC(N)CCC(N)C(=O)O)C(O)C1O (stereo not shown) [RU-0425548] ; wanted: its SAH counterscreen inhibition: Maximum response
Output: 8.34%

Input: # input molecule: Cc1ccc(C)c(C(=O)NCC2CCC3(CN(C(=O)c4cc(C)c(O)c(C)c4)C3)O2)c1C (stereo not shown) [RU-0834178] ; wanted: its SAH counterscreen inhibition: Maximum response
Output: 18.2%

Input: # input molecule: CCn1nc(C)c(C(=O)NCCc2ccc(CNC(=O)c3ccc4[nH]ncc4c3)cc2)c1C [RU-0834081] ; wanted: its SAH counterscreen inhibition: Maximum response
Output: 11.2%

From: paper PMC12434519
